- Tested on: K562 CRISPRi cells
- procedure_text: Perturb-seq pooled growth measurement (sgRNA counts, growth phenotype γ, relative activity)
- Assay type: cell-based, human
- condition_info: γ relative to perfectly matched sgRNA (_00) of the same gene, day 5
Okay, here is how we bin by relative_activity_day5: low end (below 0.3), middle (0.3 to below 0.7), high end (0.7 or more)

Form: Item = MTOR_ + _11322547.23-P1P2_07 (guide GGGCAGGGGGTCTGAAGCGG; listed as DNA, chemistry not fully specified) ; Class = ?
high end

Tag the class for ALDOA_ + _30077139.23-P1P2_06 (guide GGTCACCAGGATCCCTTCTG; listed as DNA, chemistry not fully specified)
high end

Hey, which category is RPS18_ + _33239917.23-P1P2_08 (guide GCTGCGATTCCGCTGGATCA; listed as DNA, chemistry not fully specified) in, do you know?
low end

Classify this substance: GATA1 −_48645022.23-P1P2_12 (guide GTGAGCTTGCCACATCCGCA; listed as DNA, chemistry not fully specified)
low end

// return the class label for RAN_ + _131356438.23-P1P2_12 (guide GGCGGTCGCTGCGCTTAGGT; listed as DNA, chemistry not fully specified)
low end

Classify this substance: BCR_ + _23523092.23-P1P2_15 (guide GCGCGCGGGGCCCGTCGCAG; listed as DNA, chemistry not fully specified)
low end

Assign a category based on measured relative_activity_day5 for ATP5E_ −_57607036.23-P1P2_14 (guide GGTGTCCAGGGGCACTGTGT; listed as DNA, chemistry not fully specified) and give only the class name.
low end

Which relative_activity_day5 category applies to RPS15_ −_1438413.23-P1P2_02 (guide GACCAAGGCGATCTCTTCTG; listed as DNA, chemistry not fully specified) here?
high end

Determine which band this substance sits in: MTOR_ + _11322547.23-P1P2_10 (guide GGGCAGGGGGCCTGAAGCAG; listed as DNA, chemistry not fully specified)
middle

Class? Entry: RPS18_ + _33239917.23-P1P2_02 (guide GCTGGGATGCCGCTGGATCA; listed as DNA, chemistry not fully specified)
middle
